Molecular target: Proteasome subunit beta (Trypanosoma cruzi)
Sequence (whole entry): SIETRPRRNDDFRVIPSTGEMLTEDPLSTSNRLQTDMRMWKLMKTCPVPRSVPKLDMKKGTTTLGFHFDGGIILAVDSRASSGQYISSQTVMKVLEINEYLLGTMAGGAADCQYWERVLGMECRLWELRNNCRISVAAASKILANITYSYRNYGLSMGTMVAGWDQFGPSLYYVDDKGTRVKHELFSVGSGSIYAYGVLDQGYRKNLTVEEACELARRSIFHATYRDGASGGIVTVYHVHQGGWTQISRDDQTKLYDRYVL
Assay: Trypanosoma cruzi proteasome chymotrypsin-like activity (TcProtChymo) assay. Also: in the data most compounds retested in dose-response had high values.
Type: functional
Design: scale not given: direction of the effect not stated beside the values
Conditions: 9.37 µM
I'd appreciate it if you could supply Percent Effect values for the items below.
Give bare numbers, in %.

Lab note: each compound below needs its Percent Effect filled in.
1. COc1cccc2c1OCC(NC(=O)NCc1cccs1)C2 (stereo not given)
2. CCN1CCN(C2CCN(Cc3nc(-c4ccoc4)no3)CC2)C1=O
3. Cc1cnc2n(c1=O)CC(C(=O)Nc1cccc3cccnc13)CS2 (stereo not given)
4. Cc1noc2ncc(C(=O)NCC3CCN(C(C)C)C3)cc12 (stereo not given)
5. Cc1cc(NC(=O)CN(C)C2CCCN(c3cccnn3)C2)n(C)n1 (stereo not given)
6. OCCn1cc(CN2CCN(CCOc3ccccc3F)CC2)cn1
7. CC(=O)N1CCN(C(=O)NCc2csc(Br)c2)CC1
8. CCN1C[C@H]2CCN(C(C)=O)CC[C@H]2S1(=O)=O

OUT:
9.11
0.676
8.87
4.34
10.6
4.49
-3.77
19.6

* * *

organism: Homo sapiens; assay: To identify inhibition of the IFN signalling (Jak-Stat) pathway via expression of an eGFP reporter gene under the control of an IFN-stimulated response element (ISRE) containing MxA promoter.; format: functional; design: scale not given: direction of the effect not stated beside the values; conditions: 30 µM
I'd appreciate it if you could supply Percent Effect values for the items below.
One number for each entry, in %.

Example entries and their recorded answers appear below.
compound: Cc1cc(C)n(CC2CCCCN2CC(=O)Nc2nncs2)n1 (stereo not drawn)
Percent Effect / %: 13.2
//
compound: O=C(CC1CN(Cc2ccccc2)CCO1)Nc1ccccc1F (stereo not drawn)
Percent Effect / %: 4.52

Lab note: each compound below needs its Percent Effect filled in.
1. O=C(c1ccsc1)N1CCc2c(CNc3ncccn3)n[nH]c2C1
2. Cc1cnccc1CN1C[C@@H](O)[C@H](Oc2cccc(F)c2)C1
3. CN(C)C(=O)N1CCN(Cc2cnn(C)c2)CC2(CNC(=O)C2)C1 (stereo not drawn)
4. CN(Cc1cccnc1)C1CC2(CCN(c3ccccn3)CC2)C1
5. Cn1cc(N2CC3(CCN(CC4CCOCC4)CC3)OCC2=O)cn1

OUT:
1: 9.05; 2: 16.3; 3: 3.58; 4: 27.4; 5: 17.2

Lab note: each compound below needs its Percent Effect filled in.
1. Cc1cccc(C(=O)NCCCN2CCN(c3ccccc3)CC2)c1
2. CCS(=O)(=O)c1ccccc1N1CCC(NC(=O)NC2CCCC2)CC1
3. Cc1cc(C(=O)N2CCCC(n3ccnc3C)C2)c(C)s1 (stereo not drawn)
4. Cn1cc2c(n1)C(COCC1CC1)CN(Cc1ccccn1)C2 (stereo not drawn)

OUT:
[13.6, 16, 13.2, 9.46]

Lab note: each compound below needs its Percent Effect filled in.
1. CN(c1cccnn1)C1CCN(C(=O)c2ccc3c(c2)COC3)CC1
2. Cc1csc(NC(=O)CN2CCC(c3ccnn3CCO)CC2)n1
3. O=C(NCc1cccc2cccnc12)N1CCC(n2cncn2)CC1

OUT:
9.98
47.6
12.1

* * *

species on record: Homo sapiens; assay: To identify inhibition of the IFN signalling (Jak-Stat) pathway via expression of an eGFP reporter gene under the control of an IFN-stimulated response element (ISRE) containing MxA promoter.; format: functional; design: scale not given: direction of the effect not stated beside the values; settings: 30 µM
outcome-measure: Percent Effect (%)
Answers are plain numbers, in %.

Example entries and their recorded answers appear below.
compound: COCCc1noc(CNC2CCCN(c3cccnn3)C2)n1 (configuration not stated)
result: 3.62

compound: CC(=O)N1CCCCC1c1nc(N)ncc1-c1ccccc1 (configuration not stated)
result: 8.42

compound: CC(C)c1ncc2c(n1)CN(Cc1nc(-c3cccs3)no1)CC2
result: 19.6

compound: Cc1ccc(C)c(OC2CCN(C(=O)c3ccc(C)[nH]c3=O)CC2)c1
result: 11.6

compound: Cc1n[nH]cc1CNc1ccc2c(c1)N(C(=O)OC(C)(C)C)CCC2
result: 4.68

compound: O=C(CC1CC1)NCc1cn2c(n1)CN(CC1CC1)CC2
result: 3.1

Lab note: each compound below needs its Percent Effect filled in.
1. CC(=O)Nc1nc(CN2CCOC(Cn3cc(C)cn3)C2)cs1 (configuration not stated)
2. CC(C)OCCN1CCN(C(=O)c2cccc(CC#N)c2)CC1
3. CCc1cccc(OCC(=O)N2CCCC(n3cncn3)C2)c1 (configuration not stated)
4. Cc1noc(C)c1CNCC1CCCN1c1cccnn1 (configuration not stated)
5. COCCN1CCC2(CCN(Cc3nccs3)CC2)C1=O
6. Clc1ccccc1CN1CCc2nc(C3CCCCN3)ncc2C1 (configuration not stated)

OUT:
1. 2.79
2. 18.6
3. 14.3
4. 6.36
5. -7.71
6. -13.2

* * *

target: Arginase-2, mitochondrial (Homo sapiens) (UniProt P78540); assay: in vitro enzyme assay to detect the production of urea directly proportional to the activity of Arginase II; type: functional; set-up: scale not given: in the data most compounds retested in dose-response had high values; conditions: 33.3 µM
Sequence (P78540 whole entry): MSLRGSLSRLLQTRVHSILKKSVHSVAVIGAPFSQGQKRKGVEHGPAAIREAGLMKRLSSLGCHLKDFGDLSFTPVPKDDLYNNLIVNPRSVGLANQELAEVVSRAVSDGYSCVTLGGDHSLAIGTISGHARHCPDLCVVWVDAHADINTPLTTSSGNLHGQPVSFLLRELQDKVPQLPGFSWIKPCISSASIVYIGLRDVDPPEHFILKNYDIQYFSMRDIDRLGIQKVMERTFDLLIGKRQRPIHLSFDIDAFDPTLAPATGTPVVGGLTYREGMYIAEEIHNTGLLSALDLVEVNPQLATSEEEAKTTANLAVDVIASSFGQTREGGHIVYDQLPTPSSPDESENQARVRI
outcome-measure: Percent Effect (%)
Answers are plain numbers, in %.

Example entries and their recorded answers appear below.
compound: CNC(=O)CS(=O)(=O)C1CCN(S(=O)(=O)c2ccccc2Br)CC1
Percent Effect, %: 5.46

compound: COc1ccc(CN2C[C@@H](OCc3ccccn3)[C@H]3COC[C@H]32)cc1
Percent Effect, %: 6.05

compound: Cn1cc(-c2nc(CN3CCN(CCO)CC3)cs2)cn1
Percent Effect, %: -1.53

Lab note: each compound below needs its Percent Effect filled in.
1. COCCN(Cc1ccoc1)C(=O)c1ccccc1Cl
2. C[C@@H]1C[C@@H]2CCN(C(=O)c3cnccn3)C[C@H]2O1
3. CCc1noc(C(C)N2CCN(c3ccc(C#N)cn3)CC2)n1 (configuration not stated)
4. Cc1cnc2c(S(=O)(=O)NCC3CCS(=O)(=O)C3)cccc2c1 (configuration not stated)
5. O=C(NCc1nnc2n1CCCC2)N1CCc2ccccc2C1
6. COc1ccc(OC)c(NC(=O)c2nc3ccccc3n(C)c2=O)c1
7. Cc1cnn(CCC(=O)N2CCC(Nc3cccnn3)CC2)c1

OUT:
1. -1.94
2. 0.417
3. -1.18
4. 3.24
5. 4.09
6. 3.23
7. -2

Lab note: each compound below needs its Percent Effect filled in.
1. Cc1n[nH]c(C)c1NC(=O)CN1CCc2c(nc(C3CC3)n2C)C1
2. COC(=O)c1cccn1C1CCN(C(=O)c2cn[nH]c2C)CC1

OUT:
0
0.356

* * *

I'd appreciate it if you could supply Percent Effect values for the items below.
Biological target: Tyrosyl-tRNA synthetase, putative (Trypanosoma cruzi (strain CL Brener))
Sequence (whole entry): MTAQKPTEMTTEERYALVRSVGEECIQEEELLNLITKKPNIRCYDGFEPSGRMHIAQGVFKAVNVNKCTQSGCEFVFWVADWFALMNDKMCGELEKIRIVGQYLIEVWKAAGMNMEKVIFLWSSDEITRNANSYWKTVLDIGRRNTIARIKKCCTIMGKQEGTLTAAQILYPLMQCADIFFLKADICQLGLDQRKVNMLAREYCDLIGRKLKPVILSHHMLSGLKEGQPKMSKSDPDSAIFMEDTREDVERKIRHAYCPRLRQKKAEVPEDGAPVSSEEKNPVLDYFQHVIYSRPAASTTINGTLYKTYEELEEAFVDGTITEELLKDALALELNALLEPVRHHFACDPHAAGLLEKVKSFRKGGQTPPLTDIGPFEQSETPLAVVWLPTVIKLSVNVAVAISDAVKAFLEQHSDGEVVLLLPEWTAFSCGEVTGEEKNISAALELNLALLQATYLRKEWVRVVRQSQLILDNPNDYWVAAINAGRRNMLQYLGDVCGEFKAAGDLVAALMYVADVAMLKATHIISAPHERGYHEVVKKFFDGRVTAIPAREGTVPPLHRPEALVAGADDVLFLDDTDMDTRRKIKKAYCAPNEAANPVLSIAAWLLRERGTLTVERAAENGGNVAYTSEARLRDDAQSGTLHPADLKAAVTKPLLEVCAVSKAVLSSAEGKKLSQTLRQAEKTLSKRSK
Test: Trypanosoma cruzi tyrosyl tRNA synthetase (TcYRS) SOP
Type: functional
Set-up: scale not given: direction of the effect not stated beside the values
Details: 30 µM
Returns: string containing the numeric result and its unit.

molecule: Cc1cnn(C2CCCN(C(=O)c3cc(C)sc3C)C2)c1 (stereo not drawn)
result: 7.79%

molecule: CCc1ccc(NC(=O)c2cnc(N3CCN(C)CC3)nc2C)cc1
result: 11.5%

molecule: CS(=O)(=O)NC[C@]12COC[C@H]1CN(C(=O)C1CCCCC1)C2
result: -25.6%

molecule: Cc1cnn(CC2CCCN2Cc2cc(=O)n3ccccc3n2)c1 (stereo not drawn)
result: 8.64%

molecule: Cc1cn(CC(=O)NC2CCN(S(C)(=O)=O)CC2)c2ccccc12
result: 8.64%

molecule: O=C(Nc1ccnc(OC2CCOC2)c1)c1cc(F)ccc1F (stereo not drawn)
result: -10.3%

Lab note: each molecule below needs its Percent Effect filled in.
1. Cc1oc(C)c(C(=O)NCc2cccc(NC(=O)CN(C)C)c2)c1C
2. COCC(=O)NCc1cccc(Br)c1

OUT:
["7.59%", "19.5%"]

Lab note: each molecule below needs its Percent Effect filled in.
1. CC(Oc1ccccc1C(F)(F)F)C(=O)NCCC(=O)N(C)C (stereo not drawn)
2. O=c1n(CCSCc2ccccc2F)nc2ccccn12
3. CN1CCOC(CNCc2cccc(OCC(F)(F)F)c2)C1 (stereo not drawn)
4. NCC1CN(c2nc(-c3ccccc3)nc3c2CCNCC3)CCO1 (stereo not drawn)
5. CC(=O)N1CCC(c2ccnc(Nc3cncnc3)n2)C1 (stereo not drawn)
6. COCCOCC(=O)Nc1ccc(C)cc1F

OUT:
1: 13.4%; 2: 11.8%; 3: 1.27%; 4: 28.4%; 5: 14.1%; 6: 2.6%
